compounds and their reported growth inhibition
protocol text: NCI Yeast Anticancer Drug Screen. Data for the sgs1 mgt1 strain (AID 161);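 further: 0% = growth of cultures given vehicle only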
condition description: S. cerevisiae sgs1 mgt1 strain, at 50.0 µM (retest, dose inferred, filed as 5.0), stronger effect = higher value
The panel holds about 79,000 compounds, 15% with a hit somewhere; the sample as a whole holds those more often.

- compound: "CC(=O)ON1C(=O)c2cccc3cccc(c23)C1=O"
  growth inhibition [%]: 92
- compound: "CC/C(=C(\\c1ccccc1)c1ccc(OCCN(C)C)cc1)c1ccccc1"
  growth inhibition [%]: 98
- compound: "Cc1ccc(CCC2=CCCc3c2ccc2ccccc32)cc1"
  growth inhibition [%]: 10
- compound: "CNC1C(OC2C(OC3C(O)C(O)C(N=C(N)N)C(O)C3N=C(N)N)OC(C)C2(O)CO)OC(CO)C(O)C1O (stereo unspecified)"
  growth inhibition [%]: -6
- compound: "O=[N+]([O-])c1cccc2nccc(NCCCO)c12"
  growth inhibition [%]: 85
- compound: "CC(=O)Cc1ccc[cH-]1.[Fe+2].c1cc[cH-]c1"
  growth inhibition [%]: 12
- compound: "COc1ccc2c(c1)C(=O)c1ccccc1C2"
  growth inhibition [%]: 0
- compound: "O=C(NNc1ccnc2cc(Cl)ccc12)/C(=C\\c1ccccc1Cl)NC(=O)c1ccccc1"
  growth inhibition [%]: -37
- compound: "O=C(Nc1ccccc1)OCCc1ccc(Cl)c(Cl)c1"
  growth inhibition [%]: 54
- compound: "CCN(CC)CC[n+]1ccc2c(C)c3[nH]c4ccc(O)cc4c3c(C)c2c1"
  growth inhibition [%]: 13
- compound: "CC(=O)Nc1ccc(/C=C(\\C#N)c2ccc(C)cc2)cc1"
  growth inhibition [%]: 45

Value source: PubChem BioAssay (NCI)
